Test system: PC-3 prostate
PROTOCOL_NOTES: NCI tumour cell line growth inhibition, 48 h

>  <COMPOUND>
COc1ccc(C(=O)/C=C/c2ccc(OCC(=O)N3CCN(c4ccccc4)CC3)cc2)cc1

>  <TGI>
> 100 µM

$$$$
>  <COMPOUND>
C/C(Cc1ccc(Cl)cc1)=C(/c1ccc(Cl)cc1)c1ccc(OCCN(C)C)cc1

>  <TGI>
9.21 µM

$$$$
>  <COMPOUND>
O=C=NCCCCCCN1C(=O)N2C(c3ccccc3)N(CCCCCCN=C=O)C(=O)N2C1c1ccccc1 (configuration not stated)

>  <TGI>
> 100 µM

$$$$
>  <COMPOUND>
CN(C)C(=O)Oc1ccc(-c2cn3cc(NC(=O)c4ccccc4)ccc3n2)cc1

>  <TGI>
> 100 µM

$$$$
>  <COMPOUND>
O=C(Oc1ccccc1Cl)c1ccccc1Nc1ccnc(C(F)(F)F)c1

>  <TGI>
3.55 µM

$$$$
>  <COMPOUND>
CC#CCCN(CC#N)Cc1ccccc1

>  <TGI>
> 100 µM

$$$$
>  <COMPOUND>
O=C1NC(N2CCCC(CO)C2)=N/C1=C\c1ccc(Cl)cc1 (configuration not stated)

>  <TGI>
> 100 µM

$$$$
>  <COMPOUND>
O=C(c1ccccc1)c1sc2c(=O)c(C(=O)c3ccccc3)c(C(=O)c3ccccc3)sc2c(=O)c1C(=O)c1ccccc1

>  <TGI>
> 100 µM

$$$$
>  <COMPOUND>
O=c1[nH]n(Cc2ccccn2)c2ccc([N+](=O)[O-])cc12

>  <TGI>
> 100 µM

$$$$
>  <COMPOUND>
CCCCC(=O)Oc1ccc2c(C)cc(=O)oc2c1

>  <TGI>
> 100 µM

$$$$
>  <COMPOUND>
NC(=Nc1ccc(O)cc1)S(=O)O

>  <TGI>
> 100 µM

$$$$
>  <COMPOUND>
N=C(N)SCc1cccc2c(=O)cc(-c3ccccc3)oc12

>  <TGI>
17.3 µM

$$$$
>  <COMPOUND>
NC(=O)NC(=O)c1cccc(NC(=O)CBr)c1

>  <TGI>
1.49 µM

$$$$
>  <COMPOUND>
COc1cc2c(cc1O)[C@@H]1Cc3c(cc(OC)c(OC)c3Oc3cc4c(cc3OC)CCN(C)[C@@H]4Cc3ccc(O)cc3)[C@H](C2)N1C

>  <TGI>
> 100 µM

$$$$
>  <COMPOUND>
O=C(CCCCCCSc1nc(-c2ccc(Cl)cc2)cc(-c2ccc(Cl)cc2)n1)NO

>  <TGI>
16.3 µM

$$$$
>  <COMPOUND>
CCCCCC/C=C\CCCCCCCCCC1=CC(=O)C=C(OC)C1=O

>  <TGI>
11 µM

$$$$
>  <COMPOUND>
Cc1ccc(S(=O)(=O)NC(=O)Nc2ccc(S(N)(=O)=O)cc2S(N)(=O)=O)cc1

>  <TGI>
> 100 µM

$$$$

---

System: SNB-19 CNS
PROTOCOL_NOTES: NCI tumour cell line growth inhibition, 48 h; in the data active = GI50 below about 0.43 µM; inactive = the rest
Outcome codes: true for active, false for inactive

>  <COMPOUND>
O=C(Oc1ccccc1Cl)c1ccccc1Nc1ccnc(C(F)(F)F)c1

>  <CATEGORY_LABEL>
false

$$$$
>  <COMPOUND>
CCCSC1=NC2C(N(CC)C(=O)N2CC)N1/N=C/C=C/c1ccccc1[N+](=O)[O-] (stereo not given)

>  <CATEGORY_LABEL>
false

$$$$
>  <COMPOUND>
CCC[CH2][Sn]([CH2]CCC)([O]C(=O)C1CCC(=O)N1)[O]C(=O)C1CCC(=O)N1 (stereo not given)

>  <CATEGORY_LABEL>
true

$$$$
>  <COMPOUND>
CCOC(=O)Nc1ccc(-c2nc(-c3cccc(OC)c3)c(-c3ccnc(Br)c3)[nH]2)cc1

>  <CATEGORY_LABEL>
false

$$$$
>  <COMPOUND>
CC(=O)[O][Hg][c]1ccccc1

>  <CATEGORY_LABEL>
false

$$$$

---

Test system: COLO 205 colon
PROTOCOL_NOTES: NCI tumour cell line growth inhibition, 48 h; in the data active = GI50 below about 0.43 µM; inactive = the rest
Outcome codes: 1 (yes) (active), 0 (no) (inactive)

>  <COMPOUND>
Cc1cc(C)nc(SC2=C(Nc3cccc(Cl)c3C)C(=O)N(Cc3ccccc3)C2=O)n1

>  <MEASURED_ON>
COLO 205 colon

>  <CATEGORY_LABEL>
0 (no)

$$$$
>  <COMPOUND>
COc1ccc(-c2c(-c3cc(OC)c4c(c3)OCO4)noc2N)cc1

>  <MEASURED_ON>
COLO 205 colon

>  <CATEGORY_LABEL>
1 (yes)

$$$$
>  <COMPOUND>
CCCSC1=NC2C(N(CC)C(=O)N2CC)N1/N=C/C=C/c1ccccc1[N+](=O)[O-] (stereo not given)

>  <MEASURED_ON>
COLO 205 colon

>  <CATEGORY_LABEL>
0 (no)

$$$$
>  <COMPOUND>
O=C1c2c(O)cc(O)cc2OC(c2ccc(O)cc2O)C1O (stereo not given)

>  <MEASURED_ON>
COLO 205 colon

>  <CATEGORY_LABEL>
0 (no)

$$$$
>  <COMPOUND>
Cc1nc(N)sc1C(=O)Nc1cc(C(=O)NCCCN(C)C)n(C)c1

>  <MEASURED_ON>
COLO 205 colon

>  <CATEGORY_LABEL>
0 (no)

$$$$

---

Tested on: RXF 393 renal
PROTOCOL_NOTES: NCI tumour cell line growth inhibition, 48 h; in the data active means GI50 below about 0.43 µM; inactive means the rest
Outcome codes: active, inactive

>  <GIVEN_SMILES>
C/C(Cc1ccc(Cl)cc1)=C(/c1ccc(Cl)cc1)c1ccc(OCCN(C)C)cc1

>  <CATEGORY_LABEL>
inactive

$$$$
>  <GIVEN_SMILES>
COc1ccc(-c2c(-c3cc(OC)c4c(c3)OCO4)noc2N)cc1

>  <CATEGORY_LABEL>
active

$$$$
>  <GIVEN_SMILES>
CCCCC#CC#Cc1cccc(=O)o1

>  <CATEGORY_LABEL>
inactive

$$$$
>  <GIVEN_SMILES>
O=C(O)CCCOc1cc(-c2ccccc2F)nc2cc3c(cc12)OCO3

>  <CATEGORY_LABEL>
inactive

$$$$
>  <GIVEN_SMILES>
Cc1ccc(S(=O)(=O)Cc2nc(-c3ccc(C(=O)NCc4cccnc4)cc3)oc2C)cc1

>  <CATEGORY_LABEL>
inactive

$$$$
>  <GIVEN_SMILES>
C#CCOc1cccc(Nc2ncnc3ccc(NC(=O)CCl)cc23)c1

>  <CATEGORY_LABEL>
inactive

$$$$
>  <GIVEN_SMILES>
CS(=O)(=O)CCNCc1ccc(-c2ccc3ncnc(Nc4ccc(OCc5ccccc5)c(Cl)c4)c3c2)o1

>  <CATEGORY_LABEL>
inactive

$$$$
>  <GIVEN_SMILES>
CC(=O)OCC1O[C@@H]([S-])C(OC(C)=O)[C@H](OC(C)=O)[C@@H]1OC(C)=O.[Au+].c1ccc(CN2[CH-]N(Cc3ccccc3)C(c3ccccc3)=C2c2ccccc2)cc1

>  <CATEGORY_LABEL>
inactive

$$$$
>  <GIVEN_SMILES>
CCCCCCCC(=O)SCC/C=C/[C@@H]1CC(=O)NCc2nc(co2)C2=N[C@@](C)(CS2)C(=O)N[C@@H](C(C)C)C(=O)O1

>  <CATEGORY_LABEL>
active

$$$$

---

Test system: UACC-62 melanoma
PROTOCOL_NOTES: NCI tumour cell line growth inhibition, 48 h

>  <MOLECULE>
OC(c1ccccn1)C1CNc2ccccc21 (stereo not given)

>  <TGI>
> 100 µM

$$$$
>  <MOLECULE>
O=[N+]([O-])c1ccc(Sc2c3ccccc3nc3ccccc23)nc1

>  <TGI>
29.5 µM

$$$$
>  <MOLECULE>
CCOC(=O)Nc1ccc(-c2nc(-c3cccc(OC)c3)c(-c3ccnc(Br)c3)[nH]2)cc1

>  <TGI>
4.18 µM

$$$$
>  <MOLECULE>
CCC(C(=O)[O-])C(=O)[O-].CCC(C(=O)[O-])C(=O)[O-].N.N.NCCCCCCN.[Pt+4].[Pt+4]

>  <TGI>
14.6 µM

$$$$
>  <MOLECULE>
CN(C)C(=O)Oc1ccc(-c2cn3cc(NC(=O)c4ccccc4)ccc3n2)cc1

>  <TGI>
> 100 µM

$$$$
>  <MOLECULE>
CC(=O)NNc1nc(C)c(C(/C=C/c2ccc(Cl)cc2)=N/NC(=O)C[N+](C)(C)C)s1

>  <TGI>
> 100 µM

$$$$
>  <MOLECULE>
CCN1C(=O)N(c2ccccc2)C2NN=c3s/c(=C4\C(=O)N(C(C)C)c5ccccc54)c(=O)n3C21 (stereo not given)

>  <TGI>
> 100 µM

$$$$
>  <MOLECULE>
O=C(NCCCCCCCCNC(=O)c1cccc2ccccc12)c1cccc2ccccc12

>  <TGI>
> 79.9 µM

$$$$
>  <MOLECULE>
c1ccc(C[n+]2cccc(-c3cc4ccccc4[nH]3)c2)cc1

>  <TGI>
32.1 µM

$$$$
>  <MOLECULE>
CCCCCCCCCCCCOC1C(CNC(=O)C2OC3OC(C)(C)OC3C2NC(=O)CN2CCCCCC2)OC2OC(C)(C)OC21 (stereo not given)

>  <TGI>
3.48 µM

$$$$
